Give measured pIC50 for each item. Keep answers brief.
Test system: Human immunodeficiency virus 1
assay method text: Antiviral activity against wild type HIV1 3B in human P4/R5 cells assessed as beta-galactosidase activity by single-cycle viral replication assay in presence of 10% FBS
Format: functional, organism-based
experimental setup: Human immunodeficiency virus 1, 3B
Numbers only, as −log10 of the molar value.

These solved cases illustrate the format of a correct answer.
CCN1C[C@H](C)n2c(c(O)c3c(=O)n(Cc4ccc(F)cc4)ncc32)C1=O ... 7.80
CCN1C[C@H](C)n2c(c(O)c3c(=O)n(Cc4ccc(F)c(Cl)c4)ncc32)C1=O ... 7.72
CCN1C[C@@H](C)n2c(c(O)c3c(=O)n(Cc4ccc(F)cc4)ncc32)C1=O ... 7.28
Cc1nn(Cc2ccc(F)cc2)c(=O)c2c(O)c3n(c12)[C@@H](C)CN(C(C)C)C3=O ... 8.00

Please examine the following record next.
Query :: For the molecule `CN1CCn2c(c(O)c3c(=O)n(Cc4ccc(F)cc4)ncc32)C1=O` , what pIC50 is on record?
Result :: 7.14
